- Tested on: DU-145 prostate
- assay.comment: NCI tumour cell line growth inhibition, 48 h
reported.property: TGI

Consider the worked cases shown below.
- compound: "Ic1ccc(-n2nnnc2-c2cnoc2-c2ccccc2)cc1"
  TGI: "> 100 µM"
- compound: "CCSc1[nH]c(Nc2nc(-c3ccccc3)n(-c3ccccc3)n2)c(C(N)=O)c1C(N)=O"
  TGI: "> 10 µM"

-- ask Form field: TGI recorded for CC(NNC(=O)CC(=O)N(C(=O)c1ccccc1)c1ccc(Cl)cc1)c1cc2ccccc2oc1=O (stereo not given) with DU-145 prostate (enter value)
-- reply > 10 µM

-- ask Now the same for COc1ccc(OC)c(C2Cc3cnc4nc(N)nc(N)c4c3C2)c1 (stereo not given)
-- reply 55.7 µM

-- ask Now the same for C[C@H]1Oc2cc(cnc2N)-c2c(nn(C)c2C#N)CN(C)C(=O)c2ccc(F)cc21
-- reply > 100 µM

----------
- Tested on: KM12 colon
- assay.comment: NCI tumour cell line growth inhibition, 48 h
reported.property: TGI

-- ask Form field: TGI recorded for CCCn1c(N)c(C(=O)N/N=C(/C)c2cc3cccc(OC)c3o2)sc1=S with KM12 colon (enter value)
-- reply > 100 µM

----------
Each item that follows carries a reported log10 of TGI.
- Tested on: A498 renal
- assay.comment: NCI tumour cell line growth inhibition, 48 h
Form field - Quantity: TGI; Unit: µM; Scale: log10

-- ask Form field: log10 of TGI recorded for CC(CCC#N)(CCC#N)C(=O)CC(O)(C(F)(F)F)C(F)(F)F with A498 renal (enter value)
-- reply 1.60

-- ask Now the same for Cc1csc(Nc2nc(-c3cccc(Br)c3)nc(C(Cl)(Cl)Cl)n2)n1
-- reply 0.39

-- ask Now the same for Cc1cn(CCCCCOC(=O)NC(CCCN=C(N)N)C(=O)O)c(=O)[nH]c1=O (stereo unspecified)
-- reply 1.87

-- ask Now the same for N#C/C=C(\c1ccc([N+](=O)[O-])cc1)n1nnc2cc(Cl)c(Cl)cc21
-- reply 0.54

-- ask Now the same for C=CCc1cccc(/C=N/NC(=O)CN2CCN(Cc3ccccc3)CC2)c1O
-- reply 1.26

-- ask Now the same for CCN(CC)c1nc(-c2ccc(Cl)cc2Cl)nc2ccccc12
-- reply 0.88

-- ask Now the same for CC(C)=CCc1cc(O)cc2c1OC(C=C(C)C)C1=C2C(=O)C2=C(NCCS2(=O)=O)C1=O (stereo unspecified)
-- reply 0.74

-- ask Now the same for C=CC(=O)N1CCC(C2CCNc3c(C(N)=O)c(-c4ccc(Oc5ccccc5)cc4)nn32)CC1 (stereo unspecified)
-- reply 0.86

-- ask Now the same for COc1cccc2c1C(=O)c1c(O)c3c(c(O)c1C2=O)C[C@@](O)(C(=O)CO)C[C@@H]3OC1CC(N)C(OC)C(C)O1 (stereo partly specified)
-- reply -0.24

----------
Each item that follows carries a reported TGI.
- Test system: HCT-116 colon
- assay.comment: NCI tumour cell line growth inhibition, 48 h
Field format: number, assumed µM, no unit text.

Consider the worked cases shown below.
- compound: "O=C(NCCCCN=c1cccccc1NCCCCNC(=O)OCc1ccccc1)OCc1ccccc1"
  TGI, µM: 25
- compound: "C=CC(=O)N1CCC(C2CCNc3c(C(N)=O)c(-c4ccc(Oc5ccccc5)cc4)nn32)CC1 (stereo not given)"
  TGI, µM: 39.5
- compound: "COc1ccc2[nH]cc(-c3nc(-c4c[nH]c5ncccc45)cs3)c2c1"
  TGI, µM: 21

// switching to the query compound
-- ask What measured TGI goes with N#Cc1c(-c2ccc(F)cc2)c(-c2ccc(F)cc2)nn(CCO)c1=O ?
-- reply 7.04
